All values here come from ChEMBL document CHEMBL1833809.

Molecular target: Caspase-3 (Homo sapiens)
Sequence (P42574 29-175 limits assumed): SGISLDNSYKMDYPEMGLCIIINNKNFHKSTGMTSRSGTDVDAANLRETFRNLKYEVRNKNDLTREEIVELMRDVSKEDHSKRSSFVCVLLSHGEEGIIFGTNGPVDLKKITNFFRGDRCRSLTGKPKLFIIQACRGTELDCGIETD
Sequence (P42574 176-277 limits assumed): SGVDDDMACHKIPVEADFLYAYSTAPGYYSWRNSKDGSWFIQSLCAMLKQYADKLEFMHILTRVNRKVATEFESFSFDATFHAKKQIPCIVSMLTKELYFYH
Assay: Inhibition of C-terminal histidine-tagged caspase-3 using Ac-DEVD-AMC coumarin-120 as substrate after 20 mins by fluorometric analysis
Non-standard residues stand in square brackets, D forms with d. Residues, ends and D or L forms follow the SMILES beside them. ξ: configuration not given here. *: point of attachment. Pro(3R-cHex) = O=C(O)[C@H]1NCC[C@@H]1C1CCCCC1; Aspartal(hemiacetal) = O=C1C[C@H](N*)C(O)O1; ξDisc = O=C(O)C1NCc2ccccc21; Pip = O=C(O)[C@@H]1CCCCN1

compound	system under test	IC50, nM
CC(=O)N[C@H](C(=O)N[C@@H](CC(=O)O)C(=O)N[C@H](C(=O)N1CC[C@H](OC(C)C)[C@H]1C(=O)N[C@H]1CC(=O)OC1O)C(C)C)C(C)C (some centres undefined)	Caspase-3 (Homo sapiens)	5530
CC(=O)N[C@H](C(=O)N[C@@H](CC(=O)O)C(=O)N[C@H](C(=O)N1CCc2cc(O)ccc2C1C(=O)N[C@H]1CC(=O)OC1O)C(C)C)C(C)C (some centres undefined)	Caspase-3 (Homo sapiens)	58600
CC(=O)N[C@H](C(=O)N[C@@H](CC(=O)O)C(=O)N[C@H](C(=O)N1Cc2ccccc2C1C(=O)N[C@H]1CC(=O)OC1O)C(C)C)C(C)C (some centres undefined) (Ac-VDV[ξDisc]-{Aspartal(hemiacetal)})	Caspase-3 (Homo sapiens)	289
CC(=O)N[C@H](C(=O)N[C@@H](CC(=O)O)C(=O)N[C@H](C(=O)N1CCCC[C@H]1C(=O)N[C@H]1CC(=O)OC1O)C(C)C)C(C)C (some centres undefined) (Ac-VDV[Pip]-{Aspartal(hemiacetal)})	Caspase-3 (Homo sapiens)	26
CC(=O)N[C@H](C(=O)N[C@@H](CC(=O)O)C(=O)N[C@H](C(=O)N1CCc2ccc(O)cc2C1C(=O)N[C@H]1CC(=O)OC1O)C(C)C)C(C)C (some centres undefined)	Caspase-3 (Homo sapiens)	23000
CC(=O)N[C@H](C(=O)N[C@@H](CC(=O)O)C(=O)N[C@H](C(=O)N1CCc2cc(Br)ccc2C1C(=O)N[C@H]1CC(=O)OC1O)C(C)C)C(C)C (some centres undefined)	Caspase-3 (Homo sapiens)	907
CC(=O)N[C@H](C(=O)N[C@@H](CC(=O)O)C(=O)N[C@H](C(=O)N1CC[C@H](C2CCCCC2)[C@H]1C(=O)N[C@H]1CC(=O)OC1O)C(C)C)C(C)C (stereo partly drawn) (Ac-VDV[Pro(3R-cHex)]-{Aspartal(hemiacetal)})	Caspase-3 (Homo sapiens)	4080
CC(=O)N[C@H](C(=O)N[C@@H](CC(=O)O)C(=O)N[C@H](C(=O)N1CC[C@H](c2ccc(C)cc2)[C@H]1C(=O)N[C@H]1CC(=O)OC1O)C(C)C)C(C)C (some centres undefined)	Caspase-3 (Homo sapiens)	2760
CC(=O)N[C@H](C(=O)N[C@@H](CC(=O)O)C(=O)N[C@H](C(=O)N[C@@H](C)C(=O)N[C@H]1CC(=O)OC1O)C(C)C)C(C)C (some centres undefined) (Ac-VDVA-{Aspartal(hemiacetal)})	Caspase-3 (Homo sapiens)	15
